# System: rodent lifetime carcinogenesis bioassay, tumor incidence TD50
# procedure_details: carcinogenic potency in animals, long-term in vivo studies, CPDB compilation (AID 1745844)
# condition_set: mouse; strain NMRI; males; inhaled; site: kidney; lesion: cystadenocarcinoma; dosed 78 weeks; study length 118 weeks
parameter: TD50

Query string: Value lookup for TD50; key = `ClC#CCl`
Result string: 4.52 mg/kg/day

###

# Test system: rodent lifetime carcinogenesis bioassay, tumor incidence TD50
# procedure_details: carcinogenic potency in animals, long-term in vivo studies, CPDB compilation (AID 1745844)
# condition_set: rat; strain Fischer 344; males; in feed; site: skin; lesion: basal-cell carcinoma + keratoacanthoma + trichoepithelioma; dosed 104 weeks; study length 104 weeks
parameter: TD50 (mg/kg/day)
One number for each entry, in mg/kg/day.

Query string: Which TD50 value belongs to `Cc1ncc[nH]1` ?
Result string: 624

###

# System: rodent lifetime carcinogenesis bioassay, tumor incidence TD50
# procedure_details: carcinogenic potency in animals, long-term in vivo studies, CPDB compilation (AID 1745844)
# condition_set: rat; strain Osborne-Mendel; males; by gavage; site: any site (literature study); lesion: several types; types named in the paper; dosed 103 weeks; study length 104 weeks
parameter: TD50 (mg/kg/day)
One number for each entry, in mg/kg/day.

Query string: I would be grateful if you could share the reported TD50 for `ClC=C(Cl)Cl` .
Result string: 1490

###

# System: rodent lifetime carcinogenesis bioassay, tumor incidence TD50
# procedure_details: carcinogenic potency in animals, long-term in vivo studies, CPDB compilation (AID 1745844)
# condition_set: rat; strain Fischer 344; males; by gavage; site: subcutaneous tissue; lesion: fibroma + neurofibroma; dosed 103 weeks; study length 104 weeks
parameter: TD50 (mg/kg/day)
One number for each entry, in mg/kg/day.

Query string: Form field: reported TD50 of `S=c1[nH]c2ccccc2s1`
Result string: 1900

###

# Test system: rodent lifetime carcinogenesis bioassay, tumor incidence TD50
# procedure_details: carcinogenic potency in animals, long-term in vivo studies, CPDB compilation (AID 1745844)
# condition_set: rat; strain Fischer 344; males; by gavage; site: kidney; lesion: tubular-cell adenocarcinoma; dosed 103 weeks; study length 103 weeks
parameter: TD50 (mg/kg/day)
Numbers only, in mg/kg/day.

Query string: Please give the measured TD50 for this compound: `ClC=C(Cl)Cl`
Result string: 3920

###

# System: rodent lifetime carcinogenesis bioassay, tumor incidence TD50
# procedure_details: carcinogenic potency in animals, long-term in vivo studies, CPDB compilation (AID 1745844)
# condition_set: rat; strain F344/DuCrj; females; in drinking water; site: nasal cavity; lesion: esthesioneuroepithelioma; dosed 104 weeks; study length 105 weeks
parameter: TD50 (mg/kg/day)
Answers are plain numbers, in mg/kg/day.

Query string: I'm curious: which TD50 was measured for `C1COCCO1` tested on rodent lifetime carcinogenesis bioassay, tumor incidence TD50?
Result string: 12200

###

# Test system: rodent lifetime carcinogenesis bioassay, tumor incidence TD50
# procedure_details: carcinogenic potency in animals, long-term in vivo studies, CPDB compilation (AID 1745844)
# condition_set: mouse; strain Swiss albino; females; in drinking water; site: aorta and large arteries; lesion: leiomyoma; dosed 121 weeks; study length 121 weeks
parameter: TD50

Query string: I would be grateful if you could share the reported TD50 for `NNc1ccc(C(=O)O)cc1` .
Result string: 2660 mg/kg/day

###

# Test system: rodent lifetime carcinogenesis bioassay, tumor incidence TD50
# procedure_details: carcinogenic potency in animals, long-term in vivo studies, CPDB compilation (AID 1745844)
# condition_set: mouse; strain OF1; males; in feed; site: liver; lesion: neoplastic nodule; dosed 74 weeks; study length 74 weeks
The source made the active and inactive calls. No rule for the calls is given here.
parameter: TD50

Query string: I'd like to know its TD50. The compound in question is `CC(C)C[C@H]1C(=O)N2CCC[C@H]2[C@]2(O)O[C@](NC(=O)[C@@H]3C=C4c5cccc6[nH]c(Br)c(c56)C[C@H]4N(C)C3)(C(C)C)C(=O)N12`
Result string: 308 mg/kg/day (inactive)

###

# System: rodent lifetime carcinogenesis bioassay, tumor incidence TD50
# procedure_details: carcinogenic potency in animals, long-term in vivo studies, CPDB compilation (AID 1745844)
# condition_set: mouse; strain B6C3F1; females; i.p.; site: lung; lesion: alveolar/bronchiolar adenoma + alveolar/bronchiolar carcinoma; dosed 40 weeks; study length 78 weeks
parameter: TD50 (mg/kg/day)
Give bare numbers, in mg/kg/day.

Query string: Requested read-out: TD50. Entry: `CC[C@H]1CN2CCc3cc(OC)c(OC)cc3[C@@H]2C[C@@H]1C[C@H]1NCCc2cc(OC)c(OC)cc21`
Result string: 49.4

###

# System: rodent lifetime carcinogenesis bioassay, tumor incidence TD50
# procedure_details: carcinogenic potency in animals, long-term in vivo studies, CPDB compilation (AID 1745844)
# condition_set: rat; strain Fischer 344; females; by gavage; site: liver; lesion: several types; types named in the paper; dosed 40 weeks; study length 115 weeks
parameter: TD50

Query string: Look up TD50 with rodent lifetime carcinogenesis bioassay, tumor incidence TD50 for this compound: `O=NN(CCO)C(=O)NCCCl`
Result string: 0.488 mg/kg/day

###

# Tested on: rodent lifetime carcinogenesis bioassay, tumor incidence TD50
# procedure_details: carcinogenic potency in animals, long-term in vivo studies, CPDB compilation (AID 1745844)
# condition_set: mouse; strain Swiss; females; i.p.; site: all sites; lesion: lymphosarcoma; dosed 26 weeks; study length 76 weeks
parameter: TD50

Query string: What value of TD50 has been reported for the following molecule? `CNNCc1ccc(C(=O)NC(C)C)cc1`
Result string: 6.99 mg/kg/day

###

# Tested on: rodent lifetime carcinogenesis bioassay, tumor incidence TD50
# procedure_details: carcinogenic potency in animals, long-term in vivo studies, CPDB compilation (AID 1745844)
# condition_set: rat; strain Sprague-Dawley; females; by gavage; site: gastric mucosa; lesion: carcinoid tumor, malignant; dosed 104 weeks; study length 104 weeks
parameter: TD50

Query string: Dear colleague, I am looking for the recorded TD50 of the following compound: COc1ccc2nc(S(=O)Cc3ncc(C)c(OC)c3C)[nH]c2c1 (stereo unspecified)
Result string: 63 mg/kg/day

###

# System: rodent lifetime carcinogenesis bioassay, tumor incidence TD50
# procedure_details: carcinogenic potency in animals, long-term in vivo studies, CPDB compilation (AID 1745844)
# condition_set: rat; strain Fischer 344; females; in drinking water; site: upper gastrointestinal tract; lesion: several types; types named in the paper; dosed 120 weeks; study length 133 weeks
parameter: TD50

Query string: Using the record for `O=NN1CCCN(N=O)CC1` , report its TD50.
Result string: 0.0914 mg/kg/day

###

# System: rodent lifetime carcinogenesis bioassay, tumor incidence TD50
# procedure_details: carcinogenic potency in animals, long-term in vivo studies, CPDB compilation (AID 1745844)
# condition_set: hamster; strain Syrian Golden; males; in drinking water; site: liver; lesion: liver-cell carcinoma; dosed 102 weeks; study length 102 weeks
parameter: TD50 (mg/kg/day)
One number for each entry, in mg/kg/day.

Query string: Endpoint output: TD50 of `CN(N)C=O` . Value?
Result string: 30

###

# Test system: rodent lifetime carcinogenesis bioassay, tumor incidence TD50
# procedure_details: carcinogenic potency in animals, long-term in vivo studies, CPDB compilation (AID 1745844)
# condition_set: hamster; strain Syrian Golden; females; in drinking water; site: adrenal gland; lesion: several types; types named in the paper; dosed 90 weeks; study length 90 weeks
parameter: TD50

Query string: State the recorded TD50 for this entry: `CCOC(N)=O`
Result string: 318 mg/kg/day

###

# Test system: rodent lifetime carcinogenesis bioassay, tumor incidence TD50
# procedure_details: carcinogenic potency in animals, long-term in vivo studies, CPDB compilation (AID 1745844)
# condition_set: mouse; strain B6C3F1; males; by gavage; site: Harderian gland; lesion: adenoma + carcinoma; dosed 103 weeks; study length 105 weeks
parameter: TD50 (mg/kg/day)
Numbers only, in mg/kg/day.

Query string: Reported TD50, compound `C=CC(=O)NCO` : ____
Result string: 17.4

###

# Test system: rodent lifetime carcinogenesis bioassay, tumor incidence TD50
# procedure_details: carcinogenic potency in animals, long-term in vivo studies, CPDB compilation (AID 1745844)
# condition_set: rat; strain Fischer 344; females; in feed; site: cecum + colon + rectum; lesion: polypoid adenoma; dosed 66 weeks; study length 66 weeks
parameter: TD50 (mg/kg/day)
Give bare numbers, in mg/kg/day.

Query string: May I ask what TD50 has been recorded for `Nc1c(Br)cc(Br)c2c1C(=O)c1ccccc1C2=O` ?
Result string: 1270

###

# Tested on: rodent lifetime carcinogenesis bioassay, tumor incidence TD50
# procedure_details: carcinogenic potency in animals, long-term in vivo studies, CPDB compilation (AID 1745844)
# condition_set: rat; strain Sprague-Dawley; males; inhaled; site: liver; lesion: hepatocellular carcinoma; dosed 76 weeks; study length 103 weeks
parameter: TD50

Query string: What does the record list as TD50 for `C=CBr` ?
Result string: 387 mg/kg/day
